In what follows, each item is paired with its IC50 for IGF1R (Homo sapiens, UniProt P08069).
endpoint: IC50 (nM)

smiles_code | IC50 (nM)
COc1cnn(-c2ccc(Nc3nc(Nc4cc(OC)c(N5CCC(N6CCN(C)CC6)CC5)cc4C)ncc3Br)c(P(C)(C)=O)c2)c1 | 67.2

[1] COc1cnn(-c2ccc(Nc3nc(Nc4cc(OC)c(N5CCC(N(C)C)CC5)cc4C)ncc3Br)c(P(C)(C)=O)c2)c1
[2] CCc1cc(Nc2ncc(Br)c(Nc3ccc(-c4cnc(OC)nc4)cc3P(C)(C)=O)n2)c(OC)cc1N1CCC(N2CCN(C)CC2)CC1
Hi there, can you help? I need to know whether 1 or 2 has lower measured IC50. Please respond with the label that marks your chosen entry. 1
(1: 56.1 nM, 2: 91.1 nM)

---

tested on: A431; test: A431 cell proliferation assay (CellTiter Glo, 72 hours); format: cell-based; conditions: Homo sapiens, A-431, 72 h, cell proliferation, A431, 72 hours, Table 2; read-out: A431 IC50
endpoint: IC50 (nM)

smiles_code | IC50 / nM
CCn1cc(-c2cc(Nc3ncc(Br)c(Nc4ccc(-c5cc(C)n(C)n5)cc4P(C)(C)=O)n3)c(OC)cc2N2CCC(N3CCN(C)CC3)CC2)cn1 | 415
CCc1cc(Nc2ncc(Br)c(Nc3ccc(-c4ncc(C)cn4)cc3P(C)(C)=O)n2)c(OC)cc1N1CCC(N2CCN(C)CC2)CC1 | 1390
COc1cc(N2CCC(N3CCN(C)CC3)CC2)c(C)cc1Nc1ncc(Br)c(Nc2ccc(-c3cnn(C)n3)cc2P(C)(C)=O)n1 | 415
C#Cc1cncc(-c2ccc(Nc3nc(Nc4cc(CC)c(N5CCC(N6CCN(C)CC6)CC5)cc4OC)ncc3Br)c(P(C)(C)=O)c2)n1 | 1420
CCOc1cc(Nc2ncc(Br)c(Nc3ccc(-c4cnn(C)n4)c(F)c3P(C)(C)=O)n2)c(C)cc1N1CCOCC1 | 1230

[1] CCc1cc(Nc2ncc(Br)c(Nc3ccc(-c4ccc(OC)cn4)cc3P(C)(C)=O)n2)c(OC)cc1N1CCC(N2CCN(C)CC2)CC1
[2] CCc1cc(Nc2ncc(Br)c(Nc3ccc(-c4ccco4)cc3P(C)(C)=O)n2)c(OC)cc1N1CCC(N2CCN(C)CC2)CC1
Please state the entry with greater IC50 among 1 and 2 . Please respond with the label that marks your chosen entry. 1

[P] COc1cc(N2CCOCC2)c(C#N)cc1Nc1ncc(Br)c(Nc2ccc(-c3nccs3)cc2P(C)(C)=O)n1
[Q] CCc1cc(Nc2ncc(Br)c(Nc3ccc(-c4cnn(C)c4)c(C)c3P(C)(C)=O)n2)c(OC)cc1N1CCC(N2CCN(C)CC2)CC1
Hi there, can you help? I need to know whether P or Q has lower measured IC50. Please respond with the label that marks your chosen entry. Q
(Q: 306 nM, P: 4050 nM)

---

molecular target: Ba/F3 cells with EGFR Δ19del/T790M/C797S mutation gene stably overexpressed (Homo sapiens, UniProt P00533, T790M/C797S, cells depend on it, form not given); experiment: Ba/F3-Δ19del/T790M/C797S cell proliferation assay (CellTiter Glo, 72 hours); format: cell-based; conditions: Table 2, read-out: EGFR Δ19del/T790M/C797S IC50
Sequence (P00533 with tags, fused parts or gaps DEL746-750/T790M/C797S, form open): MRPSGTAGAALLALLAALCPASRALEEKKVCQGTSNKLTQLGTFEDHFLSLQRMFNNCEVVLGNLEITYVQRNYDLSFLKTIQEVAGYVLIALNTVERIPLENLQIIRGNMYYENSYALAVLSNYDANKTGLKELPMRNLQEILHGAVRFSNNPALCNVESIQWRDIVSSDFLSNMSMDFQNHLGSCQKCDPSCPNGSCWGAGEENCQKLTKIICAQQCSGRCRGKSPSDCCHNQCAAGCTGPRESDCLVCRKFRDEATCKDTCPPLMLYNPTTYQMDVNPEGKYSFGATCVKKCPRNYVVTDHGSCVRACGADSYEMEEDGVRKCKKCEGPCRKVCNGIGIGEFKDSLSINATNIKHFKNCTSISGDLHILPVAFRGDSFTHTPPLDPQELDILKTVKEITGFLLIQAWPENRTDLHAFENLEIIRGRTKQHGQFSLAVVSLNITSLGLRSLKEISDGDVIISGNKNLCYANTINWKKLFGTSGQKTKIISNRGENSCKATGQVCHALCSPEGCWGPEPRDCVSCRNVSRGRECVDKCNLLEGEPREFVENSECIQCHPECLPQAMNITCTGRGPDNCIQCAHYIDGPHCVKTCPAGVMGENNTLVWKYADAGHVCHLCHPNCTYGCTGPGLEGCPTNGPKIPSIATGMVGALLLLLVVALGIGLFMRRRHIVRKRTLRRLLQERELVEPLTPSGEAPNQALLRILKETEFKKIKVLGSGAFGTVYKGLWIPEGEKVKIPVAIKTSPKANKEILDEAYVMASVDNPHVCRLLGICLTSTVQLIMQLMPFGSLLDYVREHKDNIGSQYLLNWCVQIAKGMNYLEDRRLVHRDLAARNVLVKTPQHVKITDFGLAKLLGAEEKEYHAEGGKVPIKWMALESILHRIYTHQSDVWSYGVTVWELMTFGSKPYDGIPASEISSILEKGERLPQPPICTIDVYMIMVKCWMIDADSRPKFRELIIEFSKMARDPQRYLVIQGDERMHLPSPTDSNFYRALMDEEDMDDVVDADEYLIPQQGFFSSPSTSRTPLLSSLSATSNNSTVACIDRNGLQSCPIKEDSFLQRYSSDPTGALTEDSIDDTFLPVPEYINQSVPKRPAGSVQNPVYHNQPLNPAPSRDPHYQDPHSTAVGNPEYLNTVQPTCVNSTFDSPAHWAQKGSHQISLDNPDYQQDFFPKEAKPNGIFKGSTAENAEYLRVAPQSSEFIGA
endpoint: GI50 (µM)

smiles_code | GI50 (µM)
C#Cc1cnc(-c2ccc(Nc3nc(Nc4cc(OC)c(N5CCC(N6CCN(C)CC6)CC5)cc4C)ncc3Br)c(P(C)(C)=O)c2)cn1 | 0.0076

[1] CCc1cc(Nc2ncc(Br)c(Nc3ccc(-c4cnn(CC)n4)cc3P(C)(C)=O)n2)c(OC)cc1N1CCC(N2CCN(C)CC2)CC1
[2] COc1cnn(-c2ccc(Nc3nc(Nc4cc(OC)c(N5CCOCC5)cc4C)ncc3Br)c(P(C)(C)=O)c2)c1
Please state the entry with greater GI50 among 1 and 2 . Please respond with the label that marks your chosen entry. 1

[1] CCc1cc(Nc2ncc(Br)c(Nc3ccc(-n4cc(OC)cn4)cc3P(C)(C)=O)n2)c(OC)cc1N1CCC(N2CCN(C)CC2)CC1
[2] CCc1cnc(-c2ccc(Nc3nc(Nc4cc(CC)c(N5CCC(N6CCN(C)CC6)CC5)cc4OC)ncc3Br)c(P(C)(C)=O)c2)nc1
Please state the entry with greater GI50 among 1 and 2 . Please respond with the label that marks your chosen entry. 1
